B1: KCNA3 (parent)
chain: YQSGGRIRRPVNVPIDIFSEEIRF

# Variants of: B1
# Assay method text: protein stability index of a GFP-peptide fusion (GPS, HEK-293T) (PSI 1-6); higher = more stable;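 note: lentivirally expressed fusions sorted by FACS into six bins by GFP to DsRed ratio, PSI derived from sequencing read proportions per bin multiplied by bin number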
# Study conditions: c terminus: a fixed tail appended
Property: protein stability index
Give only the figure.

Answered examples (4):
YQCGGRIRRPVNVPIDIFSEEIRF [S3C] ... 1.46
YQSGGRIQRPVNVPIDIFSEEIRF [R8Q] ... 1.67
YQSGGRIRRPVNVPYDIFSEEIRF [I15Y] ... 1.63
YQSGGRIHRPVNVPIDIFSEEIRF [R8H] ... 4.19

Give its protein stability index value. Item: YQSGGRIRRNVNVPIDIFSEEIRF [P10N]
1.64

// protein stability index lookup, key: YQSGGRIRRPVNVEIDIFSEEIRF [P14E]
1.43
